Molecular target: T1, human PAR-2 (human, UniProt P55085 26-397)
T1 sequence: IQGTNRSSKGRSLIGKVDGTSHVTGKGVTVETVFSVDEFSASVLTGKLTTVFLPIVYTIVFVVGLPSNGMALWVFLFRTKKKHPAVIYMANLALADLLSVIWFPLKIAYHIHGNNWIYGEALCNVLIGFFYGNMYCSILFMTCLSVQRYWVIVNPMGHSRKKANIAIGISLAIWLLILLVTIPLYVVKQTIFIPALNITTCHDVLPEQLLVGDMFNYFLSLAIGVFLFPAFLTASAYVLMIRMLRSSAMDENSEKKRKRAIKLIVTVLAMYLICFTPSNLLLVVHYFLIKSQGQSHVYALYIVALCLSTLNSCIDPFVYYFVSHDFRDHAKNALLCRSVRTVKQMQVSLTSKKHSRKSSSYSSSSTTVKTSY
Assay: cell-based or functional assay
observation_type: PAR-2 β-arrestin cell based assay IC50, 2 µM SLIGKV (nM)
Express it in nM; write the number only.

{"binder": "P24E285 (antibody, human IgG4 S228P, kappa, V domains shown) VH: QVQLVQSGAEVKKPGSSVKVSCKASGFSLNSYAVIWVRQAPGQGLEWMGVIWGNGNTYYAQKFQGRVTITADESTSTAYMELSSLRSEDTAVYYCARWRGYKDYPFDYWGQGTLVTVSS VL: EIVLTQSPATLSLSPGERATLSCKASQNVYKYLDWYQQKPGQAPRLLIYNTNSLATGIPARFSGSGSGRDFTLTISSLEPEDFAVYYCLQHNSGWTFGGGTKVEIKR", "numeric_value": 2.3}

With those in mind, consider the next binder.
PAR-2 β-arrestin cell based assay IC50, 2 µM SLIGKV recorded for this binder, P24E889 (antibody, human IgG4 S228P, kappa, V domains shown) VH: QVQLVQSGAEVKKPGSSVKVSCKASGFSLSSYAISWVRQAPGQGLEWMGVIWGNGNTYYAQKFQGRVTITADESTSTAYMELSSLRSEDTAVYYCARWRGYKDYPFDYWGQGTLVTVSS VL: EIVLTQSPATLSLSPGERATLSCRASQNIYKWLDWYQQKPGQAPRLLIYNAYSLATGIPARFSGSGSGRDFTLTISSLEPEDFAVYYCQQHNSGWTFGGGTKVEIKR , is 0.97
